Target: Wee1-like protein kinase (Homo sapiens, UniProt P30291)
Sequence (P30291 whole entry): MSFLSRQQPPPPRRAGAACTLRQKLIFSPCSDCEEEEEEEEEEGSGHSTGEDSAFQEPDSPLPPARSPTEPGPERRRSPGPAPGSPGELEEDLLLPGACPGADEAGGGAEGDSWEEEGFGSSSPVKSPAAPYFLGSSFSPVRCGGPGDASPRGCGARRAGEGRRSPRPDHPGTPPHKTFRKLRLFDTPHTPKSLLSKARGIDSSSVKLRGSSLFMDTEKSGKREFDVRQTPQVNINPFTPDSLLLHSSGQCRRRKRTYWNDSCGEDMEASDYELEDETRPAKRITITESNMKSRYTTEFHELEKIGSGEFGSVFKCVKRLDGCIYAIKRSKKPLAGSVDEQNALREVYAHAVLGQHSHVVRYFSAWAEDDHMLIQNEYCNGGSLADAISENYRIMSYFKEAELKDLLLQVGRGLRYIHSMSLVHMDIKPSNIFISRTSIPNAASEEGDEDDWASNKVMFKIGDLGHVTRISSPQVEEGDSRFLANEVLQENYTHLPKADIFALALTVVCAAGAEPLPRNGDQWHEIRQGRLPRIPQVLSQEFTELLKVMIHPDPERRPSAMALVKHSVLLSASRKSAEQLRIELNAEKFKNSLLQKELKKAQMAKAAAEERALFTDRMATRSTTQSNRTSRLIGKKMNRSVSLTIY
Experiment: Inhibition of human full length N-terminal GST tagged Wee1 expressed in E coli
assay_metric: IC50 (µM)
Write it as a number; the unit µM goes unstated.

API: value(readout=IC50, system=Wee1-like protein kinase (Homo sapiens, UniProt P30291)) for record CCOC(=O)N1CCc2c(sc3nc(SCC(=O)c4ccccc4)n(N)c(=O)c23)C1
22.3

====

Biological target: Wee1-like protein kinase (Homo sapiens)
Experiment: Inhibition of recombinant Wee1 (unknown origin) incubated for 1 hr by TR-FRET assay
assay_metric: pIC50
API: returns pIC50 as number; meaning -log10 of concentration in mol/L.

Which value of pIC50 has been reported for C=CCn1c(=O)c2cnc(Nc3ccc(N4CCN(C(=O)OC)CC4)cc3)nc2n1-c1cccc(C(C)(C)O)n1 in the records?
7.56
